Listed below: IC50 values for each entry.
Biological target: recombinant human FLT3 (Homo sapiens, UniProt P36888)
Construct: N-terminal GST tagged, amino acids 564-end; GST (N); purchased Upstate 14-500
Sequence (P36888 564-993 limits assumed): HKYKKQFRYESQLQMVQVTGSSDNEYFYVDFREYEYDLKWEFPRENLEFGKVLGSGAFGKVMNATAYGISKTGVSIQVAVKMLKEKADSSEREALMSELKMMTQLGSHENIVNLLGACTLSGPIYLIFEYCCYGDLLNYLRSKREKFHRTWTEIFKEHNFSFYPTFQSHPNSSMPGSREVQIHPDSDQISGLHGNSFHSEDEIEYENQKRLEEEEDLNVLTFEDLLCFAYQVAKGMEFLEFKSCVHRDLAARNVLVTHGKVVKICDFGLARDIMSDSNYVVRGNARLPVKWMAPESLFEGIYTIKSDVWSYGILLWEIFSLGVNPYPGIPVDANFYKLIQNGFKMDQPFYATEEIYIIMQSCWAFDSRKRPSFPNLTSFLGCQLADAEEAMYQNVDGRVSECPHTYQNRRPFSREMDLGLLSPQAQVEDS
Assay: In vitro FLT3 kinase assay (IMAP fluorescence polarization)
Assay type: biochemical
Conditions: mean, n = 4-8; ATP 100 μM; FAM-CSKtide 100 nM; read-out: IC50 (nM), typical mean IC50 values determined in the FLT3 kinase assay
Method: The compounds according to the invention were evaluated for their inhibition of FLT3 by the following method: In Vitro FLT3 Kinase Assay An enzyme inhibition assay for the tyrosine kinase domain of FLT3 was established using a fluorescence polarization technique, Immobilized Metal Ion Affinity-Based Fluorescence Polarization (IMAP) from Molecular Devices. Briefly: kinase activity is measured by incubating a fluorescent peptide substrate with the kinase domain. […]
Structures can show the parent of a compound that is named as a salt.
METRIC: IC50 (nM)

> print(dat)
                                   molecule  metric  reported.value
1    c1cc(-c2cncc(Nc3ccc4cc[nH]c4c3)n2)ccn1    IC50             560
2  Nc1ncc(-c2ccncc2)nc1NCCc1c[nH]c2ccccc12 [Example 15, trifluoroacetate]    IC50              60
3  NC(=O)c1ccc(-c2cncc(N[C@H]3CC[C@H](O)CC3)n2)cc1 [Example 28, trifluoroacetate]    IC50             159

Reference for the values: patent US8436171B2
